Values compiled from the supplement of paper PMC11875167.

Task for the reader: assign each of the following substances its reported observed amide hydrogen exchange rate constant kobs.
# PROCEDURE TEXT: observed amide hydrogen exchange rate constant kobs (stretched exponential fit, FD-normalized) (s^-1); higher = faster H/D exchange (less protection)
# EXPERIMENTAL CONDITIONS: pH 3 (pH read); temperature: 20 °C; D2O: 88%
Answer field: number only, no words.

input: What value of measured observed amide hydrogen exchange rate constant kobs is listed for `EDSVKPGAHLTVK` ?
output: 0.00181

input: What value of measured observed amide hydrogen exchange rate constant kobs is listed for `VPPPPPIAR` ?
output: 0.000659

input: What value of measured observed amide hydrogen exchange rate constant kobs is listed for `LNGTDPEDVIR` ?
output: 0.00197

input: What value of measured observed amide hydrogen exchange rate constant kobs is listed for `VDNDENEHQLSLR` ?
output: 0.00288

input: What value of measured observed amide hydrogen exchange rate constant kobs is listed for `LQAVEVVITHLAPGTK` ?
output: 0.000819

input: What value of measured observed amide hydrogen exchange rate constant kobs is listed for `VESQLIGK` ?
output: 0.00139

input: What value of measured observed amide hydrogen exchange rate constant kobs is listed for `LNEHFLNTTDFLDTIK` ?
output: 0.00161

input: What value of measured observed amide hydrogen exchange rate constant kobs is listed for `GDEEGVPAVVIDMSGLR` ?
output: 0.00109

input: What value of measured observed amide hydrogen exchange rate constant kobs is listed for `QITVNDLPVGR` ?
output: 0.000932

input: What value of measured observed amide hydrogen exchange rate constant kobs is listed for `YAISMAR` ?
output: 0.00127

input: What value of measured observed amide hydrogen exchange rate constant kobs is listed for `VAQLEQVYIR` ?
output: 0.001

input: What value of measured observed amide hydrogen exchange rate constant kobs is listed for `YLPELMAEK` ?
output: 0.000924

input: What value of measured observed amide hydrogen exchange rate constant kobs is listed for `INISEGNCPER` ?
output: 0.000833

input: What value of measured observed amide hydrogen exchange rate constant kobs is listed for `DQIYDIFQK` ?
output: 0.000729
